- measured.on: human ALK2 R206H (Homo sapiens, UniProt Q04771, R206H)
- Sequence (Q04771 21-509 R206H): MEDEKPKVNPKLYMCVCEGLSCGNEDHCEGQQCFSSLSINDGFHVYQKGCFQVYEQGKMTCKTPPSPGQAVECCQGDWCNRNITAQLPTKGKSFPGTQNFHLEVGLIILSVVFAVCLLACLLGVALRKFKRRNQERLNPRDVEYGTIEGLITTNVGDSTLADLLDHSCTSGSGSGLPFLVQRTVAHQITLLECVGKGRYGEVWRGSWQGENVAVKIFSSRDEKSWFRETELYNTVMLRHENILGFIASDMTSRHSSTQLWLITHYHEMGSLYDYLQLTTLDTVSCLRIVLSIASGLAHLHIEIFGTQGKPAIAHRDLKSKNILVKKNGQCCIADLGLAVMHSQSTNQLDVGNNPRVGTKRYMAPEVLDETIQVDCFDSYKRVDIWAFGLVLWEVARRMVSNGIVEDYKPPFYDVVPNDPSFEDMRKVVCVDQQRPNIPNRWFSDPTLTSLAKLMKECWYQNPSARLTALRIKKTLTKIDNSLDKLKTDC
- experimental.details: Cell-based ALK2-R206H cell activity assay (Smad1-Ser463/Ser465 phosphorylation by AlphaLISA in HEK293-ALK2-R206H cells)
- reported.conditions: phospho-Smad1 AlphaLISA, read-out: Cell Line (Cell Assay, IC50 class)
- Method: Example 11. Cell-Based ALK2-R206H Cell Activity Assay […] After 2-3 hours of incubation with test compound or control, the cells were lysed and signal was developed using ALPHASCREEN® SUREFIRE® SMAD1 (p-Ser463/465) cellular kinase assay kit (PerkinElmer, Cat No. TGRSM1S10K) following the manufacturer's recommended protocol. The microplates were read using Perkin Elmer ENVISION® plate reader (emission 520-620 nM). […]
IC50 for assorted compounds

For orientation, consider the following solved cases.
[[record]]
compound = "CC(C)OC(=O)N1CCN(c2ccnc3[nH]c(-c4cnn(C)c4)c(C#N)c23)CC1 [Compound 137]"
measured_on = "human ALK2 R206H (Homo sapiens, UniProt Q04771, R206H)"
measured_parameter = "IC50"
result = "≤ 100 nM"

[[record]]
compound = "O=C(C1CC1)N1CCN(c2ccnc3[nH]c(-c4ccc(N5CCN(C6COC6)CC5)cc4)cc23)CC1 [Compound 452]"
measured_on = "human ALK2 R206H (Homo sapiens, UniProt Q04771, R206H)"
measured_parameter = "IC50"
result = "≤ 100 nM"

[[record]]
compound = "O=C(OC1COC1)N1CCN(c2ccnc3[nH]c(-c4nc(C5CC5)cs4)cc23)CC1 [Compound 313]"
measured_on = "human ALK2 R206H (Homo sapiens, UniProt Q04771, R206H)"
measured_parameter = "IC50"
result = "100 to 500 nM"

[[record]]
compound = "CC(C)N1CCC[C@@H](c2ccc(-c3cc4c(N5CCN(C(=O)OC6COC6)CC5)ccnc4[nH]3)cc2)C1 [Compound 466]"
measured_on = "human ALK2 R206H (Homo sapiens, UniProt Q04771, R206H)"
measured_parameter = "IC50"
result = "≤ 100 nM"

[[record]]
compound = "Cn1cc(-c2cc3c(N4CCN(C(=O)OC5COC5)CC4)ccnc3[nH]2)cc1C#N [Compound 203]"
measured_on = "human ALK2 R206H (Homo sapiens, UniProt Q04771, R206H)"
measured_parameter = "IC50"
result = "≤ 100 nM"

[[record]]
compound = "O=C(OC1COC1)N1CCN(c2ccnc3[nH]c(-c4cn5c(n4)CCC5)cc23)CC1 [Compound 218]"
measured_on = "human ALK2 R206H (Homo sapiens, UniProt Q04771, R206H)"
measured_parameter = "IC50"
result = "≤ 100 nM"

[[record]]
compound = "CS(=O)(=O)c1ccc(-c2cc3c(N4CCN(C(=O)C5CC5)CC4)ccnc3[nH]2)cc1 [Compound 307]"
measured_on = "human ALK2 R206H (Homo sapiens, UniProt Q04771, R206H)"
measured_parameter = "IC50"
result = "100 to 500 nM"


Here is the next item to consider.
Incoming: Recorded IC50 for Cn1cc(-c2[nH]c3nccc(N4CCN(C(=O)O[C@H]5CCOC5)CC4)c3c2Cl)cn1 [Compound 330] , please?
Outgoing: ≤ 100 nM
